Molecular target: ribosomal protein S8 (E. coli) (Escherichia coli, UniProt P0A7W7 1-130)
Assay: fluorescence anisotropy; 10 mM Mg acetate
Details: protein: recombinant; tags: N-terminal 6xHis (pET28b NheI-XhoI); label: 5'-fluorescein; hairpin, asymmetric internal loop
measured.property: Kd (nM)
Give the value in nM but do not write nM after it.

Req: Please list Kd recorded for the binder CGCUGGCGGGAUUAAGUCGACUUCGGUCGAAACUGGUCCCGGCAGCG (structured_RNA) [helix 21 16S rRNA S8 site, fluorescein hairpin]
Resp: 28
